Every entry's value here was drawn from a collection of fitness landscapes (doi:10.1126/science.1257360).

# enrichment ratio annotations
B1: PhoQ; a variant is named by its letters at X, in order, P23837 (parent)
chain: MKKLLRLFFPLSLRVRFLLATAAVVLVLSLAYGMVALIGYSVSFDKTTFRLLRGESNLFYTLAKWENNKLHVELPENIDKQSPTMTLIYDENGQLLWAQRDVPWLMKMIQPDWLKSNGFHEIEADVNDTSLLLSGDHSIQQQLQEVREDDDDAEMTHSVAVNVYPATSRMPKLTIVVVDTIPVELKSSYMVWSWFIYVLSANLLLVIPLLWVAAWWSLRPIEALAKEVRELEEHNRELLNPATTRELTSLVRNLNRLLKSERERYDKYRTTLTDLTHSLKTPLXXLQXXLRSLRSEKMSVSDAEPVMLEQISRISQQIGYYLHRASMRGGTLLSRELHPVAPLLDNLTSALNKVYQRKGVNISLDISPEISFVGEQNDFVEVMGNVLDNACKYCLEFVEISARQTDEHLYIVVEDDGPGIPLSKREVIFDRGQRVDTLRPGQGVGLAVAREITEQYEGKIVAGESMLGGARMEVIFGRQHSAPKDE

Variants of: B1
testSummary: enrichment ratio after two sorts for PhoP signalling (ratio (wild type AVST 3.29)); higher = more functional
appliedConditions: with PhoP (E. coli)
The full ranking holds about 140,000 sequences; the median of “enrichment ratio after two sorts for PhoP signalling” is about 0, and the highest 2% start at about 11. This is one part of a sample in which the highest values are shown more often than they occur.
quantityKind: enrichment ratio

TRVV    14.5
ADIQ    21.4
AEIM    15.7
TANC    12.1
ANMI    26.5
ANVV    11.6
TFNC    2.85
TDNC    13.4
THNQ    30.9
ANVA    3.53
